Test system: cortical cell cultures
Test: In vitro assay on ischemia (potassium cyanide and 2-deoxyglucose insult)
Assay type: cell-based
Settings: concentration required to cause a 50% reduction in glutamate toxicity following an ischemic insult; unit inferred
Checkbox rule: EC50 lower than 800 nM = 1; EC50 not lower than 800 nM = -1.

See these solved cases before continuing.
                                smiles_str  qualitative_label
0             O=C(O)c1cc(CS)ccc1OCc1ccccc1                  1
1  O=C(O)c1ccc(COc2ccc(CCS)c(C(=O)O)c2)cc1                 -1

Determine whether this molecule shows EC50 lower than 800 nM (ties excluded): O=C(O)c1cc(OCc2ccccc2)ccc1CCS
-1

Determine whether this molecule shows EC50 lower than 800 nM (ties excluded): O=C(O)c1cccc(COc2ccc(CCS)c(C(=O)O)c2)c1
1

====

Reported values: IC50 for NAALADase (Homo sapiens), one per item.
Note: unit nM is implicit; provide only the numeric part.

                              compound              assay_system  assay_endpoint  experimental_value
0  COc1cccc(CCS)c1C(=O)O [Compound 44]  NAALADase (Homo sapiens)            IC50                 954

Param request: IC50 | system NAALADase (Homo sapiens) | item O=C(O)c1ccccc1CS [Compound 31, 2-(mercaptomethyl)-benzoic acid]
100000

Param request: IC50 | system NAALADase (Homo sapiens) | item O=C(O)c1ccc(Br)c(COc2cccc(CCS)c2C(=O)O)c1 [Compound 35]
1.2

Param request: IC50 | system NAALADase (Homo sapiens) | item O=C(O)c1cc(COc2cccc(CCS)c2C(=O)O)ccc1Br [Compound 38]
0.8

Param request: IC50 | system NAALADase (Homo sapiens) | item COc1ccc(C(=O)O)c(COc2cccc(CCS)c2C(=O)O)c1 [Compound 39]
40

====

Target: NAALADase (Homo sapiens, UniProt Q04609)
Sequence (Q04609 whole entry): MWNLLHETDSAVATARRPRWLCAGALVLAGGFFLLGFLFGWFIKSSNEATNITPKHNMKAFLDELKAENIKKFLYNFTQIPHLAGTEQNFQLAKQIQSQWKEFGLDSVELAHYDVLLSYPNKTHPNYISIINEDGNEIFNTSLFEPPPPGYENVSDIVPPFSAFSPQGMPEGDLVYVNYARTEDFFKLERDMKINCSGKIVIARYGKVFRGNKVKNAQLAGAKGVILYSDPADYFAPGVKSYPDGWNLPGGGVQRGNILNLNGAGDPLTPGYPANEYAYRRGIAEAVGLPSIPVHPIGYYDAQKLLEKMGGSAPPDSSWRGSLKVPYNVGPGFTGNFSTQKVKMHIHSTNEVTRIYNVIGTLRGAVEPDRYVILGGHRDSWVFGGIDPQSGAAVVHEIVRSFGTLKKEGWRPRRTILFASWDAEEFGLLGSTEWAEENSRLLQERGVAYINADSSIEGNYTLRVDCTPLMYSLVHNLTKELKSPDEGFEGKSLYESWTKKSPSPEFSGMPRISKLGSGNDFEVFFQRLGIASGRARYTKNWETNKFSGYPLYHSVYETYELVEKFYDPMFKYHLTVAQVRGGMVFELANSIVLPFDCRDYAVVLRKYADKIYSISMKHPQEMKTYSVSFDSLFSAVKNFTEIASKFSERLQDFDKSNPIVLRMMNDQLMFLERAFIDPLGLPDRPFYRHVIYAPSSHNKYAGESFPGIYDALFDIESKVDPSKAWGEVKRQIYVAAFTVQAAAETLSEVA
pIC50: −log10 of the molar value.
Tick 1 (yes) if pIC50 is 7 or greater. Tick 0 (no) if pIC50 is less than 7.

In [3]: df
Out[3]:
                          smiles_str  qualitative_label
0  O=C(O)c1c(CCS)cccc1OCc1ccc(Cl)cc1            1 (yes)

Please indicate if the recorded pIC50 for CC(C)(C)c1ccc(COc2cccc(CCS)c2C(=O)O)cc1 meets or exceeds 7.
0 (no)

Please indicate if the recorded pIC50 for O=C(O)c1ccc(COc2cccc(CCS)c2C(=O)O)cc1 meets or exceeds 7.
1 (yes)

Please indicate if the recorded pIC50 for O=C(O)c1c(CCS)cccc1OCc1ccc(Br)cc1 meets or exceeds 7.
0 (no)

Please indicate if the recorded pIC50 for O=C(O)Cc1cccc(CCS)c1C(=O)O meets or exceeds 7.
1 (yes)

Please indicate if the recorded pIC50 for O=C(O)c1c(CCS)cccc1OCc1cccc(Cl)c1 meets or exceeds 7.
0 (no)

====

Test system: cortical cell cultures
Assay: In vitro assay on ischemia (potassium cyanide and 2-deoxyglucose insult)
Type: cell-based
Conditions: concentration required to cause a 50% reduction in glutamate toxicity following an ischemic insult; unit inferred
assay.endpoint: EC50

>>> df
                            smiles_str  experimental_value
0        O=C(O)c1c(CCS)cccc1OCc1ccccc1               96 nM
1  O=C(O)c1ccccc1COc1cccc(CCS)c1C(=O)O               29 nM
2                    O=C(O)c1ccccc1CCS              846 nM
3                   O=C(O)c1cccc(CS)c1              619 nM
4  O=C(O)c1cccc(-c2ccc(CS)cc2C(=O)O)c1              151 nM

Hello, please tell me recorded EC50 for this one: O=C(O)c1ccc(COc2cccc(CCS)c2C(=O)O)cc1
19 nM

Hello, please tell me recorded EC50 for this one: O=C(O)c1cccc(CCS)c1
2400 nM

Hello, please tell me recorded EC50 for this one: O=C(O)c1cc(CS)ccc1Br
2000 nM
